inhibition at 0.01 µM values by entry
- Test system: HIV-IIIb
- PROTOCOL TEXT: Test A: Antiviral Assay in MT4 Cells
- Format: cell-based, HIV-1
- CONDITION DETAILS: Human immunodeficiency virus 1, MT4, 120 h; inhibition of virus-induced cell killing, from dose response curve at 0.01 μM (10 nM); MT-4 cells, HIV-IIIb, 5 days; values normalized to 100%; read-out: % inhibition at 0.01 μM
Answer with a number only, understood to be in %.

compound="Cn1nc(NS(=O)(=O)CC2CC2)c2c(Cl)ccc(-c3ccc(C#CC(C)(C)S(=O)(=O)C4CC4)nc3[C@H](Cc3cc(F)cc(F)c3)NC(=O)Cn3nc(C(F)F)c4c3C(F)(F)[C@@H]3C[C@H]43)c21 [Example 14]" assay_result=100
compound="CC(C)(C#Cc1ccc(-c2ccc(Cl)c3c(NS(C)(=O)=O)nn(C4COC4)c23)c([C@H](Cc2cc(F)cc(F)c2)NC(=O)Cn2nc(C(F)F)c3c2C(F)(F)[C@@H]2C[C@H]32)n1)S(=O)(=O)C1CC1 [Example 18]" assay_result=100
compound="Cn1nc(NS(C)(=O)=O)c2c(Cl)ccc(-c3ccc(C#CC(C)(C)S(=O)(=O)C4CC4)nc3[C@H](Cc3cc(F)cc(F)c3)NC(=O)Cn3nc(C(F)(F)F)cc3C3CC3)c21 [Example 44]" assay_result=87

Now for the compound whose inhibition at 0.01 µM we want.
GET /value?item= Cn1nc(NS(C)(=O)=O)c2c(Cl)ccc(-c3ccc(C#CC(C)(C)S(=O)(=O)C4CC4)nc3[C@H](Cc3cc(F)cc(F)c3)NC(=O)Cn3ccnc3)c21 [Example 49] &field=inhibition at 0.01 µM returns 0

Cited source: patent US11753399B2
